Molecular target: T1, Man9-V3 glycopeptide (Man9GlcNAc2 at N301 and at N332; disulfide bridge between C296 and C331 (cyclized); biotin tag)
T1 peptide: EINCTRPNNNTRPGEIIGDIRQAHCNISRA
Assay: BLI
RESULT_TYPE: Kd

[
  {
    "BINDER": "DH270.2 (antibody, V domains shown) VH: QVQLVQSGAEMKKPGASVRVSCKASGYTFTDYYIHWVRQAPGQGPEWMGWINPSTGRTNSPQKFQGRVIMTRDTSISTAYMDLNRLTSDDTAMYYCTTGGWIGLYSDTSGYPNFDYWGQGTLVTVSS VL: QSALTQPASVSGSPGQSITISCTGTNYDVGSYNLVSWYQQHPGKVPKYIIYEVNKRPSGVSNRFSGSKSGNTASLTISGLQAEDEADYYCCSYAGSSIIFFGGGTKLTVI",
    "Kd": "4.77 µM"
  },
  {
    "BINDER": "DH270.4 (antibody, V domains shown) VH: EVQLVQSGAEMKNPGASVKVSCAASGYGFTDFYIHWVRLAPGHGLQWMGWMNPKTGRTNNAQDFQGRVILTRDTSIGTAYMELRRLTSDDTAVYYCVTGGWISPYYDSSYYPNFDHWGQGTLITVSS VL: QSALTQPASVSGSPGQSITISCTGTSYDVAKFDLVSWFQQHPGKAPKYMIYEVNKWPSGVSHRFSGSKSGNTASLTISGLQAEDEADYYCCSFGGSATVVCGGGTKVTVL",
    "Kd": "0.346 µM"
  },
  {
    "BINDER": "DH270.5 (antibody, V domains shown) VH: QVQLVQSGAEVKNPGASVKVSCAPSGYTFTDFYIHWVRLAPGQGLEWLGWMNPKTGRTNQGQNFQGRVIMTRDTSIGTAYMELRSLTSDDTAVYYCVTGAWISDYYDSSYYPNFDHWGQGTLVTVSS VL: LPVLTQPASVSGSPGQSITISCTGTIYDVGKFDLVSWYQHHPGKAPKYLIYEVKKWPSGVSHRFSGSKSGNTASLTISGLQVEDEADYYCCSFGGSAAVVCGGGTKVTVL",
    "Kd": "0.281 µM"
  }
]

Read the next record carefully.
// sample DH270.3 (antibody, V domains shown) VH: QVQLVQSGAEMKNPGASVKVSCAASGYTFTDFYIHWVRLAPGQGLEWMGWMNPKTGRTNNAQNFQGRVIMTRDTSIGTAYMELRRLTSDDTAVYYCVTGGWISPYYDSSYYPNFDHWGQGTLVTVSS VL: QSALTQPASVSGSPGQSITISCTGTSYDVGKFDLVSWYQQHPGKAPKYMIYEVNKWPSGVSHRFSGSKSGNTASLTISGLQAEDEADYYCCSFGGSATVVCGGGTKVTVL , its Kd was 0.195 µM
